The origin of these recorded values is ChEMBL document CHEMBL4888484.

- Test system: Plasmodium falciparum
- testSummary: Primary screen in NF54 nanoGlo assay, in single point, at 2uM, 72h; a lower Z score goes with more inhibition
- Assay type: functional, Erythrocyte
- experimentalParameters: timepoint 72 hour
The campaign covered roughly 150,000 compounds. About 540 (0.36%) showed an effect of 50% or more. Only a selection was taken, and strong results are over-represented in it overall.
Entries and their Z score

>  <compound>
CN1CCC[C@@H]1CCNC1CCN(c2ccc3c(c2)CCC3)CC1

>  <Z score>
-2.96

$$$$

Recorded result, Cc1cnccc1NCCNC1CCN(c2ccc(Cl)cc2)CC1 , Z score: -17.94

The value of Z score measured for the compound CC(C)[C@@H](C(=O)NCc1cccc(C(F)(F)F)c1)N1CCCS1(=O)=O turned out to be 0.83

The measured Z score associated with Cc1cccc(CN2CCC[C@@](O)(CN3CCN(CC4CC4)CC3)C2=O)c1 reads 1.1

response.value for Cn1c(Cc2n[n+]3c(-c4ccccc4)cc(-c4ccccc4)nc3n2C)n[n+]2c(-c3ccccc3)cc(-c3ccccc3)nc12 (field: Z score) = -10.43

Z score recorded for this compound, C[C@@H](C1CC1)N(CC(=O)Nc1ccc(F)cc1F)C1CC1 , is 1.76

Looking up O=C(c1cccc2cc[nH]c12)N1C[C@@H]2[C@H](C1)[C@H]1CC[C@@H]2O1 , I found its Z score recorded as -1.92

The recorded Z score for N#Cc1cccc(CN2Cc3nc[nH]c3C[C@H]2C(=O)NCc2ccco2)c1 is 0.75

The reported value for O=c1[nH]c2ccc(NCc3cc(Cl)ccc3OCc3ccccc3F)cc2[nH]1 in terms of Z score is -0.36

Looking up Cc1ccc(N2CCC(NCCCn3cccn3)CC2)cc1Cl , I found its Z score recorded as 0.81

CCC(C)C(NC(=O)C1CCC(C)CC1)C(=O)NC1CCN(Cc2ccccc2)CC1 (stereo not drawn) has a reported Z score of 0.32

compound C[C@@H](C1CC1)N(C1CC1)S(=O)(=O)c1cccc2c1N=S=N2 , Z score observed: -0.53

For record Cn1c(=O)c2c(-c3ccc(Cl)cc3)n(-c3cccc4cccc(N)c34)cc2n(C)c1=O the listed Z score is -11.21

Field Z score (entry Cc1cccc(OCC(O)CNC2C3CCCOC3C2(C)C)c1 (stereo not drawn) ) reads 0.93

Form: compound = COc1cc(C)c2[nH]c3c(c(=O)c2c1)CN(CC(=O)Nc1ccc2c(c1)OCO2)CC3 ; Z score = -0.61

Entry COC(=O)c1cc(OC)ccc1-c1cccc(C(=O)N2CCNC[C@@H]2C)c1 , Z score reported as 1.67

CC(C)(C)c1nc(CNc2ccc(S(=O)(=O)CCO)cc2)no1 has a reported Z score of 1.4
